Listed next: entries and their corresponding pEC50.
Tested on: Bundibugyo virus
Test: Antiviral activity against pseudotyped Bundibugyo ebolavirus expressing glycoprotein infected in human A549 cells assessed as inhibition of viral entry incubated for 48 hrs by Neolite reporter gene assay
Type: functional, organism-based
Conditions: A549, 48 h
pEC50: −log10 of the molar value.
endpoint: pEC50

# compound.structure.string, result.value
measured = [
    ("O=C(Nc1ccc(N2CCC3(CCC3)CC2)c(C(F)(F)F)c1)c1ccc(CN2C[C@H]3C[C@@H]2CO3)nc1", 6.02),
    ("O=C(Nc1ccc(N2CCC3(CCC3)CC2)c(C(F)(F)F)c1)c1ccc(C(=O)N2C[C@H]3C[C@@H]2CO3)nc1", 5.92),
    ("O=C(Nc1ccc(N2CCC3(CCC3)CC2)c(C(F)(F)F)c1)c1ccc(C(=O)N2C[C@@H]3C[C@H]2CO3)nc1", 6.68),
    ("CC1CCN(c2ccc(NC(=O)c3ccc(CN4CCOCC4)cc3)cc2C(F)(F)F)CC1", 5.44),
    ("O=C(Nc1ccc(N2CCC3(CCC3)CC2)c(C(F)(F)F)c1)c1ccc(CN2C[C@@H]3C[C@H]2CO3)nc1", 6.08),
]
